# Assay Summary: chemical genetic growth profiling, strain panel (AID 1159580);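 note: tested at 20 µM; growth read once vehicle control cultures reached saturation at 30 °C; lower values mean less growth of the strain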
# Experimental Setup: S. cerevisiae deletion strains, growth OD, locus YNL161W, strain CBK1
The campaign covered roughly 5,500 compounds. About 2,000 (36%) were called active. About 18% were inconclusive and are not listed. Cut-off read from the data, not from the text of the source: active = normalized growth mostly below about 0.91 (no sharp cut-off); inconclusive = no clear call, values can overlap the other calls; inactive = mostly above about 0.92. The list shows a part of the results.
Labels: active, inactive

# Molecule, Class Label
records = [
    ("COC(=O)c1cccc(NS(=O)(=O)c2ccc(Cl)c(Cl)c2)c1", "inactive"),
    ("CC1SC(c2cccnc2)N(c2ccc(Cl)cc2)C1=O (centres undefined)", "inactive"),
    ("Cc1cc2nc3c(Cl)c(O)c4ccccc4c3nc2cc1C", "inactive"),
    ("Cn1ncc(-c2nc(-c3ccc(Cl)cc3)cs2)c1N", "inactive"),
    ("O=S(=O)(Nc1cc(C(F)(F)F)cc(C(F)(F)F)c1)c1ccc(Cl)s1", "inactive"),
    ("O=[N+]([O-])c1ccc(Sc2ccccc2)c([N+](=O)[O-])c1", "active"),
    ("CC(=O)c1ccc(Sc2ccccc2)c([N+](=O)[O-])c1", "active"),
    ("Cc1cc(C)c2cc(C(=O)NCCNc3ccc(C(F)(F)F)cn3)[nH]c2c1", "inactive"),
    ("Cc1cc(N=Cc2cc(Cl)cc(Cl)c2O)no1", "inactive"),
]

----------
# Assay Summary: chemical genetic growth profiling, strain panel (AID 1159580);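 note: tested at 20 µM; growth read once vehicle control cultures reached saturation at 30 °C; lower values mean less growth of the strain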
# Experimental Setup: S. cerevisiae deletion strains, growth OD, locus YAL026C, strain drs2
In all, about 5,500 compounds went through this assay and about 2,000 (36%) were called active. Not shown: some 18% with an inconclusive outcome. Cut-off read from the data, not from the text of the source: active = normalized growth mostly below about 0.91 (no sharp cut-off); inconclusive = no clear call, values can overlap the other calls; inactive = mostly above about 0.92. Some of the results follow.
Outcomes: active, inactive

# Molecule, Class Label
data = [
    ("O=c1c(O)c(-c2ccccc2)oc2cc(O)ccc12", "active"),
    ("CON", "inactive"),
    ("C[C@H]1C(=O)CCC2[C@]3(C)CC[C@@]4(C)C5CC(C)(C)CC[C@]5(C)CC[C@]4(C)C3CC[C@@]21C (stereo not given in full)", "inactive"),
    ("CCCN(CCC)c1c([N+](=O)[O-])cc(C(F)(F)F)cc1[N+](=O)[O-]", "inactive"),
    ("O=c1c(O)c(-c2ccc(O)cc2)oc2ccccc12", "active"),
    ("O=c1c(O)c(-c2ccccc2)oc2ccccc12", "active"),
    ("O=C(O)C1=C(CSc2nnnn2CS(=O)(=O)O)CS[C@@H]2C(NC(=O)[C@H](O)c3ccccc3)C(=O)N12 (stereo not given in full)", "inactive"),
    ("CO/N=C(/C(=O)NC1C(=O)N2C(C(=O)OCOC(=O)C(C)(C)C)=C(/C=C\\c3scnc3C)CSC12)c1csc(N)n1 (stereo not given)", "inactive"),
    ("CC12CCC(O)CC1CCc1ccccc12 (stereo not given)", "inactive"),
    ("CC(=O)OC[C@@]1(O)C[C@@]23CCC4c5ccoc5CC[C@]4(C)C2CC[C@@H]1C3 (stereo not given in full)", "active"),
]

----------
# Assay Summary: chemical genetic growth profiling, strain panel (AID 1159580);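 note: tested at 20 µM; growth read once vehicle control cultures reached saturation at 30 °C; lower values mean less growth of the strain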
# Experimental Setup: S. cerevisiae deletion strains, growth OD, locus YMR078C, strain ctf18
In all, about 5,500 compounds went through this assay and about 2,000 (36%) were called active. Roughly 18% stayed inconclusive and do not appear here. No stated cut-off is given here; in the data, active means normalized growth mostly below about 0.91 (no sharp cut-off); inconclusive means no clear call, values can overlap the other calls; inactive means mostly above about 0.92. The list shows a part of the results.
Outcome codes: active, inactive

# Compound, Class Label
data = [
    ("O=C(O)c1cccnc1C(=O)O", "inactive"),
    ("Cc1cc(O)c2c(c1)C(=O)c1cc(O)cc(O)c1C2=O", "active"),
    ("Oc1cccc2cccnc12", "active"),
    ("COC(=O)C(O)[C@H]1C(C)(C)[C@@H](OC(C)=O)[C@@H]2CC3=C4CC(=O)O[C@@H](c5ccoc5)[C@]4(C)CCC3[C@@]1(C)C2=O (some centres undefined)", "inactive"),
    ("CC[C@H]1OC(=O)[C@H](C)[C@@H](O[C@H]2C[C@@](C)(OC)[C@@H](O)[C@H](C)O2)[C@H](C)[C@@H](O[C@@H]2O[C@H](C)C[C@H](N(C)C)[C@H]2O)[C@](C)(O)C[C@@H](C)/C(=N/OCOCCOC)[C@H](C)[C@@H](O)[C@]1(C)O", "inactive"),
    ("Cc1ccc(O)c(C(CCN(C(C)C)C(C)C)c2ccccc2)c1 (centres undefined)", "inactive"),
    ("COc1cc(O)c2c(c1)C(=O)c1cc(C)cc(O)c1C2=O", "inactive"),
    ("COc1ccc(NS(=O)(=O)c2ccc(N)cc2)nn1", "inactive"),
    ("O=C(Nc1ccc([N+](=O)[O-])cc1Cl)c1cc(Cl)ccc1O", "active"),
]
